- Method: clinical
- Experimental Parameters: human, in vivo, single dose, PK lead-in phase of dose-escalation phase, 600 mg (n=7), mean; read-out: T1/2 (converted)
Assay Endpoint: half-life (h)
Numeric answer only, unit h assumed.

The molecule listed as COc1cc(N2CCC(N3CCN(C)CC3)CC2)ccc1Nc1nc2c(c(Nc3ccccc3S(=O)(=O)NC(C)C)n1)CCN2 [Conteltinib] has a reported half-life of 78.7

====

- Method: clinical
- Experimental Parameters: human, in vivo, single dose, PK lead-in phase of dose-escalation phase, 50 mg (n=2), mean
Assay Endpoint: MRT last (h)
Numeric answer only, unit h assumed.

The compound listed as COc1cc(N2CCC(N3CCN(C)CC3)CC2)ccc1Nc1nc2c(c(Nc3ccccc3S(=O)(=O)NC(C)C)n1)CCN2 [Conteltinib] has a reported MRT last of 8.1
